Data origin: PubChem BioAssay (NCI)

- Test system: HL-60(TB) leukemia
- method: NCI tumour cell line growth inhibition, 48 h
endpoint: TGI

Worked examples follow.
Cc1cc(NCCN(C(C)C)C(C)C)nc(/N=C(\N)Nc2ccc(Cl)c(C(F)(F)F)c2)n1; 0.952 µM
CCCCc1ccc(Nc2nc(SC)c3[nH]cnc3n2)cc1; > 46.4 µM
COc1ccc(CC(=O)N2CCC3(C)CC(=O)CC=C23)cc1OC (centres undefined); > 100 µM

// each listed compound needs a value for TGI
1. CCSc1n/c(=C\c2ccco2)c2nncn12
2. C=CCC(N(C)C(=O)[C@H](Cc1ccccc1)NC(=O)OCc1ccccc1)P(=O)(Oc1ccccc1)Oc1ccccc1 (some centres undefined)
3. CCCc1cc(=O)[nH]c(-n2nc(C)cc2C)n1
4. COc1cc2oc3cc(=O)cc4oc(-c5ccccc5)cc(c2c2c1CCC(c1ccccc1)O2)c43 (centres undefined)
5. COc1cc2c(ccc3c4cc(OC)c(OC)cc4c[n+](C)c23)cc1O
6. O=C1NCc2ccccc2S(=O)(=O)n2cccc21
7. COc1ccc(-c2nc(-c3ccccc3)c(-c3ccccc3)[nH]2)cc1OC1CCCC1

Marked response:
["> 100 µM", "> 100 µM", "20.7 µM", "62.7 µM", "> 75 µM", "> 100 µM", "> 100 µM"]

// each listed compound needs a value for TGI
1. CCOC(=O)c1c2c(n(Cc3ccc(Cl)cc3Cl)c1C)-c1nc[nH]c1C(=O)C2=O
2. COc1ccc(N=Cc2ccc(N(CCC#N)S(=O)(=O)c3ccccc3)cc2)cc1
3. O=C(NC(=O)c1cn(CCN(CCO)C(=O)NCCCCCCNC(=O)N(CCO)CCn2cc(C(=O)NC(=O)OCc3ccccc3)c(=O)[nH]c2=O)c(=O)[nH]c1=O)OCc1ccccc1
4. Cc1ccc(-c2nc(C#N)c(S(=O)(=O)n3nc(C)cc3N)o2)cc1
5. COC(=O)CNS(=O)(=O)c1ccc(-c2c3nc(c(-c4ccc(S(=O)(=O)NCC(=O)OC)cc4)c4ccc([nH]4)c(-c4ccc(S(=O)(=O)NCC(=O)OC)cc4)c4nc(c(-c5ccc(S(=O)(=O)NCC(=O)OC)cc5)c5ccc2[nH]5)C=C4)C=C3)cc1
6. CC12CC3OC(=O)C1COC14OC5(C2C1=O)C(O)(CCC1C4CC(O)C2(O)CC=CC(=O)C12C)C(=O)OC35C (centres undefined)

Marked response:
1. 5.14 µM
2. > 100 µM
3. > 100 µM
4. 5.42 µM
5. > 100 µM
6. > 100 µM

// each listed compound needs a value for TGI
1. CC1=NN(c2nc(N)nc(CSc3nc4n(c(=S)n3)CCN4)n2)C(C)(C)C1
2. COc1cccc(-c2nn(-c3ccccc3)cc2-c2ccnc(NCCCNC(=O)Nc3ccc(Cl)c(Cl)c3)c2)c1
3. OCC(O)C(Cl)CCl (centres undefined)

Marked response:
1: > 100 µM; 2: 5.81 µM; 3: > 100 µM
